A collection of molecules and their measured Hoechst 33342 nuclear staining
system: KB; assay: Hoechst 33342 nuclear staining (Table 3); assay type: cell-based, human; parameters: key: 0 relating to no activity; 1 relating to weak activity comprising less than 50% of the cells; score 2 relating to strong activity comprising more than 50% of the cells; details: 48h, conc 3 (µM)
readout name: Hoechst 33342 nuclear staining

- molecule: "CC1(C)Cc2ccccc2-c2c(Br)c3nc4ccccc4nc3n21"
  readout name: "Hoechst 33342 nuclear staining"
  quantitative result: 0
- molecule: "COc1cc2c(cc1OC)-c1cc3nc4ccccc4nc3n1C(C)C2 (stereo not drawn)"
  readout name: "Hoechst 33342 nuclear staining"
  quantitative result: 0

All figures here come from patent EP1433789A1.
